Biological target: T1, amino acid residues 26-148 of human ANGPTL4 fused in-line to mouse IgG2a (hANGPTL4-mFc) (human)
T1 construct: contains the N-terminal coiled-coil region
T1 chain: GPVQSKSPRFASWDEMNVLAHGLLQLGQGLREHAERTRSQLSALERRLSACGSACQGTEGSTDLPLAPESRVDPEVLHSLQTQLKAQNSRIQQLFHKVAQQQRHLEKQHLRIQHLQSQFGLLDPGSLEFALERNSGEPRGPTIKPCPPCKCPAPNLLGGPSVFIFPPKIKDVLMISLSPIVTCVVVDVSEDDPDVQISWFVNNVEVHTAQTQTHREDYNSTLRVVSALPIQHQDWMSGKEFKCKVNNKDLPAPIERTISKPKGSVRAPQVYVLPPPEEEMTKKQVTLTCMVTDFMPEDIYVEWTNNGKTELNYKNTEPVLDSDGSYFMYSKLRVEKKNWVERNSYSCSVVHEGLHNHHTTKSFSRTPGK
Assay: SPR (Biacore), 25° C., pH 5.75, antigen captured by anti-mFc
Could you please report measured Kd for the items listed next?
Answer shape: numeric part, then the unit.

H1H268P Fab fragment (Fab, V domains shown, Fab made by papain digestion of H1H268P (IgG1); also called H1H268 Fab) VH: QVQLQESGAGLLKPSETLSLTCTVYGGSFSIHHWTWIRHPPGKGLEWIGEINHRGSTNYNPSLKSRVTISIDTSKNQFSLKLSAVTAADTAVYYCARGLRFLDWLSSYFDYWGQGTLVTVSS VL: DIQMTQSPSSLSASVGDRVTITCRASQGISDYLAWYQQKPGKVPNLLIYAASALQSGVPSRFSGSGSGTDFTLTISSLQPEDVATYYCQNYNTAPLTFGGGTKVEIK = 17.5 nM

Hey, quick one: what's Kd for each of these?
1. H1H268P (antibody, V domains shown, also called entire H1H268 mAb; Full mAb) VH: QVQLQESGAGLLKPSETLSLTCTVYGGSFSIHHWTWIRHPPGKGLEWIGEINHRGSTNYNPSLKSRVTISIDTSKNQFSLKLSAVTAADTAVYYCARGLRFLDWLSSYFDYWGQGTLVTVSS VL: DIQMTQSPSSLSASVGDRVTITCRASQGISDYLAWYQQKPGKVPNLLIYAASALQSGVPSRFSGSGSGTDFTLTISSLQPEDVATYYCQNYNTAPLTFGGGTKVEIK
2. H1H284P Fab fragment (Fab, V domains shown, Fab made by papain digestion of H1H284P (IgG1); also called H1H284 Fab) VH: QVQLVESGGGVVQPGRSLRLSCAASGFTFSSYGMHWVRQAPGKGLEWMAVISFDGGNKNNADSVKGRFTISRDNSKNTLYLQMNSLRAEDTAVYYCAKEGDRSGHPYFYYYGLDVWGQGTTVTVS VL: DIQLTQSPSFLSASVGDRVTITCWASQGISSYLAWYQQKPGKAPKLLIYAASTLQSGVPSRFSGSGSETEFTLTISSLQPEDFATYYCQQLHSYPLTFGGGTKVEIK

Result:
["0.22 nM", "3.4 nM"]

Q: Need Kd, item H1H284P (antibody, V domains shown, also called entire H1H284 mAb; Full mAb) VH: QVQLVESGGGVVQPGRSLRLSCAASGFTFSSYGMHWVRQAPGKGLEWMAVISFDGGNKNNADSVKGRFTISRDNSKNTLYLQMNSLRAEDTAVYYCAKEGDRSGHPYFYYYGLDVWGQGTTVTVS VL: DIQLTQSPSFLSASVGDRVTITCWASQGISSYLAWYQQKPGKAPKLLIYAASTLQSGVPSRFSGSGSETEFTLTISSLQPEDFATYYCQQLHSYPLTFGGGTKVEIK
Result: 0.0819 nM
